Exercise: for every item that follows, state its recorded HDAC3 activity raw data (signal).
- targetUnderTest: HDAC3 (Homo sapiens)
- Construct: purchased Reaction Biology Corporation (assay run by the CRO)
- Sequence (O15379 whole entry): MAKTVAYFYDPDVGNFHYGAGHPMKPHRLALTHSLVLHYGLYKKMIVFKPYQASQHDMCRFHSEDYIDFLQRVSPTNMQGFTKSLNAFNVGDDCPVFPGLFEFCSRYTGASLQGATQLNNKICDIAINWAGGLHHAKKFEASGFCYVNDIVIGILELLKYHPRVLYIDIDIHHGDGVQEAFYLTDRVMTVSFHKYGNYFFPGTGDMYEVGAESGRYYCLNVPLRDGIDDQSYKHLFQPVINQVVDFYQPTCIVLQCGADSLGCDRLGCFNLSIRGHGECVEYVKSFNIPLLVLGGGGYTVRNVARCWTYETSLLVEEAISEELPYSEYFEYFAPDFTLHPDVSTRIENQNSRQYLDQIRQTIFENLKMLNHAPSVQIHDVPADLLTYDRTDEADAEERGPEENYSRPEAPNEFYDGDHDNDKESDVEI
- Sequence (Q9Y618 395-489 partner limits assumed): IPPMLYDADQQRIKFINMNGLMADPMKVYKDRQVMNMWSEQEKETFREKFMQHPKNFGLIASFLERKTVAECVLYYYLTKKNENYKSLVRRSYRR
- procedureDetails: HDAC3 inhibition, full IC50 measurement (Reaction Biology; fluorogenic p53 peptide RHKK(Ac)AMC)
- Assay type: biochemical
- testContext: Conc. 1.23E-07 M, t2
Peptide text beside a SMILES is read from it.
// print number alone

### Prompt Using the record for C[C@H](O)[C@H]1NC(=O)[C@H](Cc2c[nH]c3ccccc23)NC(=O)[C@H](CCCCCS)NC(=O)[C@H](CCCCN)NC(=O)[C@@H](CC(=O)O)NC(=O)[C@@H](CCCCN)NC(=O)[C@@H](CO)NC(=O)[C@H](CC(N)=O)NC(=O)[C@H](CC(=O)O)NC1=O [des2.1.0, SHA-Trp-dThr-Asp-Asn-dSer-dLys-dAsp-Lys] (HELM PEPTIDE1{D.N.[dS].[dK].[dD].K.[O=C([C@H](CCCCCS)N[*:1])[*:2]].W.[dT]}$PEPTIDE1,PEPTIDE1,1:R1-9:R2$$$V2.0) , report its HDAC3 activity raw data (signal).
### Response 478168

### Prompt Requested read-out: HDAC3 activity raw data (signal). Entry: CC(C)C[C@H]1NC(=O)[C@H](Cc2c[nH]c3ccccc23)NC(=O)[C@H](CCCCCS)NC(=O)[C@@H](Cc2ccc(O)cc2)NC(=O)[C@@H](C(C)C)NC(=O)[C@H](Cc2c[nH]cn2)NC(=O)CNC(=O)CNC(=O)[C@@H](CO)NC1=O [des2.2.0, SHA-Trp-dLeu-dSer-Gly-Gly-His-dVal-dTyr] (HELM PEPTIDE1{G.G.H.[dV].[dY].[O=C([C@H](CCCCCS)N[*:1])[*:2]].W.[dL].[dS]}$PEPTIDE1,PEPTIDE1,1:R1-9:R2$$$V2.0)
### Response 1391457

### Prompt Please give the measured HDAC3 activity raw data (signal) for this compound: CC(C)[C@@H]1NC(=O)[C@H](CCCNC(=N)N)NC(=O)[C@@H](CC(=O)O)NC(=O)[C@H](CO)NC(=O)[C@@H](CO)NC(=O)[C@@H](CCC(=O)O)NC(=O)[C@H](Cc2ccc(O)cc2)NC(=O)[C@H](CCCCCS)NC1=O [des4.2.0, SHA-Tyr-dGlu-dSer-Ser-dAsp-Arg-Val] (HELM PEPTIDE1{R.V.[O=C([C@H](CCCCCS)N[*:1])[*:2]].Y.[dE].[dS].S.[dD]}$PEPTIDE1,PEPTIDE1,1:R1-8:R2$$$V2.0)
### Response 581691

----------
Please respond with reported HDAC3 activity raw data (signal) for every item in the list.
- targetUnderTest: HDAC3 (Homo sapiens)
- Construct: purchased Reaction Biology Corporation (assay run by the CRO)
- procedureDetails: HDAC3 inhibition, full IC50 measurement (Reaction Biology; fluorogenic p53 peptide RHKK(Ac)AMC)
- Type: biochemical
- testContext: Conc. 1.00E-05 M, t2
Peptide text beside a SMILES is read from it.
Lab note: jot the number down without any unit.

### Prompt For the molecule shown here, N=C(N)NCCC[C@@H]1NC(=O)[C@@H](CCCNC(=N)N)NC(=O)[C@H]2CCCN2C(=O)[C@@H](Cc2c[nH]cn2)NC(=O)[C@H](Cc2ccc(O)cc2)NC(=O)[C@H](CCCCCS)NC(=O)[C@H](CCc2ccccc2)NC(=O)[C@@H](CO)NC(=O)[C@H](CC(=O)O)NC1=O [des3.3.1, SHA-Tyr-dHis-dPro-dArg-Arg-Asp-dSer-C27] (HELM PEPTIDE1{[O=C([C@H](CCCCCS)N[*:1])[*:2]].Y.[dH].[dP].[dR].R.D.[dS].[O=C([C@H](CCc1ccccc1)N[*:1])[*:2]]}$PEPTIDE1,PEPTIDE1,1:R1-9:R2$$$V2.0) , give the reported HDAC3 activity raw data (signal).
### Response -2975

### Prompt Entry C[C@H](O)[C@H]1NC(=O)[C@H](Cc2c[nH]c3ccccc23)NC(=O)[C@H](CCCCCS)NC(=O)[C@H](CCCCN)NC(=O)[C@@H](CC(=O)O)NC(=O)[C@@H](CCCCN)NC(=O)[C@@H](CO)NC(=O)[C@H](CC(N)=O)NC(=O)[C@H](CC(=O)O)NC1=O [des2.1.0, SHA-Trp-dThr-Asp-Asn-dSer-dLys-dAsp-Lys] (HELM PEPTIDE1{D.N.[dS].[dK].[dD].K.[O=C([C@H](CCCCCS)N[*:1])[*:2]].W.[dT]}$PEPTIDE1,PEPTIDE1,1:R1-9:R2$$$V2.0) : reported HDAC3 activity raw data (signal) = ?
### Response 13801
